Below, each entry is listed alongside its reported MIC.
System: Staphylococcus aureus
Assay: Antibacterial activity against inducible macrolide-lincosamide-streptogramin B-resistant Staphylococcus aureus B0538 by agar microdilution method
Format: functional
recorded_metric: MIC (µg/mL)

1. CC[C@H]1OC(=O)[C@H](C)C(=O)[C@H](C)[C@@H](O[C@@H]2O[C@H](C)C[C@H](N(C)C)[C@H]2O)[C@](C)(OCC(O)CNCC(C)C)C[C@@H](C)NC(=O)[C@H](C)[C@H](O)[C@@]1(C)O (stereo partly drawn)	64
2. CC[C@H]1OC(=O)[C@H](C)C(=O)[C@H](C)[C@@H](O[C@@H]2O[C@H](C)C[C@H](N(C)C)[C@H]2O)[C@](C)(OCC(O)CNCCNc2ccc3c(c2F)c(=O)c(C(=O)O)cn3C2CC2)C[C@@H](C)NC(=O)[C@H](C)[C@H](O)[C@@]1(C)O (stereo partly drawn)	1
3. CC[C@H]1OC(=O)[C@H](C)C(=O)[C@H](C)[C@@H](O[C@@H]2O[C@H](C)C[C@H](N(C)C)[C@H]2O)[C@](C)(OC/C=C/c2cnc3ccccc3c2)C[C@@H](C)C(=O)N[C@H](C)[C@H](O)[C@@]1(C)O	16
4. CC[C@H]1OC(=O)[C@H](C)C(=O)[C@H](C)[C@@H](O[C@@H]2O[C@H](C)C[C@H](N(C)C)[C@H]2O)[C@](C)(OCC(O)CNCCNc2cc3c(=O)c(C(=O)O)cn(C4CC4)c3cc2Cl)C[C@@H](C)NC(=O)[C@H](C)[C@H](O)[C@@]1(C)O (stereo partly drawn)	2
5. CC[C@H]1OC(=O)[C@H](C)C(=O)[C@H](C)[C@@H](O[C@@H]2O[C@H](C)C[C@H](N(C)C)[C@H]2O)[C@](C)(OCC(O)CNCCc2ccccc2)C[C@@H](C)NC(=O)[C@H](C)[C@H](O)[C@@]1(C)O (stereo partly drawn)	16

* * *

Tested on: Staphylococcus aureus
Experiment: Antibacterial activity against efflux-resistant Staphylococcus aureus B0331 by agar microdilution method
Type: functional
Doc: threshold 4 µg/mL (exclusive). Items with MIC beneath it return T; others return F.

1. CC[C@H]1OC(=O)[C@H](C)C(=O)[C@H](C)[C@@H](O[C@@H]2O[C@H](C)C[C@H](N(C)C)[C@H]2O)[C@](C)(OC)C[C@@H](C)C(=O)[C@H](C)[C@H]2N(CCCCn3cnc(-c4cccnc4)c3)C(=O)O[C@]12C [TELITHROMYCIN]	T
2. CC[C@H]1OC(=O)[C@H](C)C(=O)[C@H](C)[C@@H](O[C@@H]2O[C@H](C)C[C@H](N(C)C)[C@H]2O)[C@](C)(OC/C=C/c2cnc3ccccc3c2)C[C@@H](C)C(=O)N[C@H](C)[C@H](O)[C@@]1(C)O	F
3. CC[C@H]1OC(=O)[C@H](C)C(=O)[C@H](C)[C@@H](O[C@@H]2O[C@H](C)C[C@H](N(C)C)[C@H]2O)[C@](C)(OCC(O)CNCCc2ccccc2)C[C@@H](C)NC(=O)[C@H](C)[C@H](O)[C@@]1(C)O (stereo partly specified)	F
4. CC[C@H]1OC(=O)[C@H](C)C(=O)[C@H](C)[C@@H](O[C@@H]2O[C@H](C)C[C@H](N(C)C)[C@H]2O)[C@](C)(OCC(O)CNC2CN(S(=O)(=O)c3ccc4ccncc4c3)CCN2)C[C@@H](C)NC(=O)[C@H](C)[C@H](O)[C@@]1(C)O (stereo partly specified)	F
5. CC[C@H]1OC(=O)[C@H](C)C(=O)[C@H](C)[C@@H](O[C@@H]2O[C@H](C)C[C@H](N(C)C)[C@H]2O)[C@](C)(OCC(O)CN(C)CCc2ccc([N+](=O)[O-])cc2)C[C@@H](C)NC(=O)[C@H](C)[C@H](O)[C@@]1(C)O (stereo partly specified)	T
